logD values for the molecules below.
# Condition details: pH 7.4
Observable: logD

Molecule | Observable | Readout value
CC(C)(C)OC(=O)N1CCN(c2ccc(OCc3ccc(S(C)(=O)=O)cc3)cn2)CC1 | logD | 3.2
CCOc1cccc2c3c([nH]c12)CCN(C(=O)[C@@H]1CCCC[C@H]1C(=O)NC1(C#N)CC1)C3 | logD | 3.1
CC(C)(C)OC(=O)N1CCC(c2ncc(OCc3ccc(S(C)(=O)=O)cc3)cn2)CC1 | logD | 2.8
COc1ccc(N(C(=O)c2ccoc2Cl)C(C(=O)NC[C@@H](C)O)c2ccccc2F)c(OC)c1 (stereo partly specified) | logD | 2.36
CCCSc1ncccc1C(=O)NC1CCCCC1 | logD | 3.24
C[C@H]1O[C@@H](n2cnc3c(N)nc(O[C@H]4CC[C@H](C)CC4)nc32)[C@H](O)[C@@H]1O | logD | 2.35

====

# Condition details: pH 7.4
Could you please mark Yes for values of logD below 3 and No for values at or above it?

Compound | Class name
O=c1cc(O)c2c(=O)n(Cc3ccccc3)c3ccccc3c2o1 | Yes
N#CC1(NC(=O)[C@@H]2CCCC[C@H]2C(=O)N2CCc3[nH]c4ccccc4c3C2)CC1 | Yes
C[C@@H]1CN(C(=O)OC(C)(C)C)CCN1c1ncc(OCc2ccc(S(C)(=O)=O)cc2C#N)cn1 | No
Cc1ncc(-c2ccnc(Nc3ccc(N4CCN(S(C)(=O)=O)CC4)cc3)n2)n1C(C)C | Yes
COCc1ccoc1C(=O)N(c1ccc(OC)cc1OC)C(C(=O)NC[C@@H](C)O)c1ccccc1F (stereo not given in full) | Yes
CS(=O)(=O)C1(c2cc(N3CCOCC3)nc(-c3cccc4[nH]ccc34)n2)CC1 | Yes
COc1c/c(=C2\C=c3ccccc3=N2)[nH]/c1=C\c1[nH]c(C)cc1C | Yes
O=c1cc(O)c2c(=O)n(-c3ccccc3)c3ccccc3c2o1 | Yes
NS(=O)(=O)c1ccc(Nc2nccc(-c3cnc4ccccn34)n2)cc1 | Yes
COc1ccc(N2CCN(C(=O)[C@@H]3CCCC[C@H]3C(=O)NC3(C#N)CC3)[C@H](C)C2)nc1OC | Yes
O=C(Nc1cccc2cccnc12)C1CCC(N2C(=O)[C@@H]3[C@@H]4CC[C@@H](C4)[C@@H]3C2=O)CC1 (stereo not given in full) | No
N#CC1(NC(=O)[C@@H]2CCCC[C@H]2C(=O)N2CCc3[nH]c4ccc(C(F)(F)F)cc4c3C2)CC1 | No
Cc1ncc(-c2nc(Nc3ccc(N4CCN(C(=O)CO)CC4)cc3)ncc2F)n1C(C)C | Yes
CC(=O)NC1CN(c2ccc(Nc3ncc(F)c(-c4cnc(C)n4C(C)C)n3)cc2)C1 | Yes
CN(C(=O)Cc1ccc(-n2cnnn2)cc1)[C@H]1CCN(Cc2ccc(C(F)(F)F)cc2)C[C@H]1F | No
CCS(=O)(=O)c1ccc(-c2cc(C(F)(F)F)ccc2OCC(N)=O)c(C)c1 | Yes
N#CC1(NC(=O)[C@@H]2CCCC[C@H]2C(=O)N2CCc3[nH]c4cccc(F)c4c3C2)CC1 | No
COc1cnccc1COc1cnc(N2CCN(C(=O)OC(C)(C)C)CC2)nc1 | No
COc1ccc(N(C(=O)c2occc2Cl)C(C(=O)NC[C@@H](C)O)c2ccccc2F)c(OC)c1 (stereo not given in full) | Yes
N#CC1(NC(=O)[C@@H]2CCCC[C@H]2C(=O)N2CCN(c3nc4cnccc4s3)CC2)CC1 | Yes
Nc1ccccc1NC(=O)c1ccc(-c2ncc(CN3CCC3)cc2F)cc1 | Yes
C[C@@H](Oc1ccc(S(C)(=O)=O)cc1C(=O)N1CCN(c2ncc(C(F)(F)F)cc2F)CC1)C(F)(F)F | No
Cc1nn(C)c2cc(N3CCN(C(=O)[C@@H]4CCCC[C@H]4C(=O)NC4(C#N)CC4)[C@H](C)C3)ccc12 | Yes
C[C@@H]1CN(c2nc(C(F)(F)F)no2)CCN1c1ncc(OCc2ccncc2C#N)cn1 | No
